Cited source for all entries: paper PMC5241706

Biological target: PfProRS (Plasmodium falciparum)
Construct: B2, AA7–746 (minus 6 amino acids, or 99% of the ORF); made in house; host or cells: E. coli BL21(DE3)R3 Rosetta Oxford
Sequence (Q8I5R7 7-746): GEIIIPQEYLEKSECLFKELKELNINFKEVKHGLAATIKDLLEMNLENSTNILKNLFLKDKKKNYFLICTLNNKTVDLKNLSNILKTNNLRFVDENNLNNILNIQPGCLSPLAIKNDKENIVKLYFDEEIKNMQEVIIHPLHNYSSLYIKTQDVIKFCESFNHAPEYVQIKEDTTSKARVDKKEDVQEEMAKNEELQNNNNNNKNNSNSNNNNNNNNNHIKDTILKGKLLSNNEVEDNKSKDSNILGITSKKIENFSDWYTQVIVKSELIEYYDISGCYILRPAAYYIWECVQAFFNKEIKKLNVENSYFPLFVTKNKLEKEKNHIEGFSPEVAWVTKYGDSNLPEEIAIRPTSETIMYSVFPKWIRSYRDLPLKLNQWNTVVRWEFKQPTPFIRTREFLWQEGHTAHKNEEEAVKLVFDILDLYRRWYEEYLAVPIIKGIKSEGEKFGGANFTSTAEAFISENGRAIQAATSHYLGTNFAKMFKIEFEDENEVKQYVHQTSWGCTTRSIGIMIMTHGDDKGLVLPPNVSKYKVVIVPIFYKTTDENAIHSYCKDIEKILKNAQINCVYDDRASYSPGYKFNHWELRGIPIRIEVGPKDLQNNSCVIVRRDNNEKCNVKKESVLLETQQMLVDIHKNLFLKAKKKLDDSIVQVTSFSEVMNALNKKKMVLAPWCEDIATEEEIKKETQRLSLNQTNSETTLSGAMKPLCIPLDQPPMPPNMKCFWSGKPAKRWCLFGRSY
Assay: biochemical
Type: biochemical
Details: read-out: Pf ProRS IC50
Collected pIC50 values appear next to each entry.
pIC50 field: float, defined as -log10 of concentration (mol/L).

> print(dat)
                                     smiles                    target.system  observed.measurement
1  CN(C)CCc1nn(C)c(NC(=O)Nc2ccc(F)cc2)c1-c1ccc(F)cc1  PfProRS (Plasmodium falciparum)                  5.40
2  Cn1nc(C#N)c(-c2ccc(F)cc2)c1NC(=O)Nc1ccc(F)cc1  PfProRS (Plasmodium falciparum)                  5.30

Continue with the next compound.
Q. Answer with reported pIC50 of Cn1nc(CCN2CCOCC2)c(-c2ccc(F)cc2)c1NC(=O)Nc1ccc(F)cc1
A. 5.52
